- Tested on: MS2 coat protein
- test protocol: apparent KD of MS2 coat protein; designed switch direction (-1 OFF switch, 1 ON switch): -1; higher = weaker reporter binding
- protocol conditions: Eterna round: R95; input ligand: FMN 200 uM

residue string: AGGAGUAGUAUCCGAUCCUACAUGAGGAUCACCCAUGUAGCUAGACGUGCACGCGAUGCUCGUCAGACUACCAGAUG [salish99_TOv1_r3_034] (puzzle: Sensor v3, turn-off variant 1)
uom: nM
apparent KD of MS2 coat protein: 99.4
//
residue string: ACAAGCUUUUUGCUCGUCUACAUGAGGAUCACCCAUGUAGUGAGAUAGUGGUGAAGAUAGAUUGAGCGUAGUAGGUA [JR_SV3TOV1_Sub071] (puzzle: Sensor v3, turn-off variant 1)
uom: nM
apparent KD of MS2 coat protein: 26.9
//
residue string: GUGAGACAUGAGGAUCACCCAUGUGAGGAUAUCCGAAGGACCAAAUUAAGAAUAGAAGGGAGAAGGCACAUAAA [Exclusion 1 V6] (puzzle: Exclusion 1)
uom: nM
apparent KD of MS2 coat protein: 128
//
residue string: GAUUGACAUGAGGAUCACCCAUGUGAGGAUAUCGGCUGGACCGUGUUGGCUUGCUUCUCGAGAAGGCGCAUAGG [Exclusion 1 V51] (puzzle: Exclusion 1)
uom: nM
apparent KD of MS2 coat protein: 32.7
//
residue string: GAUUAUGCGAGCUUUAGGGACAUGAGGAUCACCCAUGUUCGUCUUAUUAGUCUAGGUACGCUAACAUACCUAAAUCU [JMF 40] (puzzle: Sensor v3, turn-off variant 1)
uom: nM
apparent KD of MS2 coat protein: 20.2
//
residue string: UAUUAGCAAGUAAGGUCCCACAUGAGGAUCACCCAUGUGCUCGUCUUAUAAGGUACUGUGACGAAAGUCACGGUACC [Sensor 3, v1 - 95] (puzzle: Sensor v3, turn-off variant 1)
uom: nM
apparent KD of MS2 coat protein: 18.4
//
residue string: AUAGUAGAAGUGAGGAUAUCGUAGAUUUUUUGAAACGAGAAGGCACAUGAGGAUCACCCAUGUAAGAUGGAGGU [JR_BMOE4_Sub052] (puzzle: Brourd's mod of Exclusion 4)
uom: nM
apparent KD of MS2 coat protein: 236
//
residue string: AAAAUGGUCUAGGAUAUGACAAAUCUGAUCACGUCAGAAGGAGACACAUGAGGAUCACCCAUGUGGGUGCGAAA [Qureenan] (puzzle: Exclusion 6)
uom: nM
apparent KD of MS2 coat protein: 130
//
residue string: AUCCUGUCAGGAUAUCUAGUUAAAUACAUGAGGAUCACCCAUGUCACUGGGCCGUCCUUAAGAGAAGGGACAGGCG [Edabe] (puzzle: Exclusion 5)
uom: nM
apparent KD of MS2 coat protein: 169
//
residue string: AGAUGUAGAUACCGAUCCUACAUGAGGAUCACCCAUGUAGCUAGACGUGCGGGCGGCGCUCGUCAGACUACCAGUAG [salish99_TOv1_r3_094] (puzzle: Sensor v3, turn-off variant 1)
uom: nM
apparent KD of MS2 coat protein: 271

###

This listing pairs sequences with measured apparent KD of MS2 coat protein.
- System: MS2 coat protein
- test protocol: apparent KD of MS2 coat protein; designed switch direction (-1 OFF switch, 1 ON switch): 1; higher = weaker reporter binding
- protocol conditions: input ligand: microRNA oligo, concentration not stated

residue string: GUUAGGAAUCUAGCACACAUGAGGAUCACCCAUGUUAGUGGGAAGGAUAUGGUACAGAAACUGUACCAGAAGGUCUUAUUGUUU [Omei SS(NG) 3 AV14] (Eterna round: R96, puzzle: Same State NG 3)
measured target: MS2 coat protein
apparent KD of MS2 coat protein (nM): 67.6
--
residue string: UUAAUAAUGAUAGGAUAUACAUGAGGAAUUCUCGUAGAAGGAUCAUGACAUGAGGAUCACCCAUGUAACGCUCGAAAGAGCGUA [Mat - Same State NG 1 - JL mod - D39] (Eterna round: R96, puzzle: Same State NG 1)
measured target: MS2 coat protein
apparent KD of MS2 coat protein (nM): 394
--
residue string: GUCGGUCUGUCGUGCUGAGGUGAUAGUUAACAUGAGGAUCACCCAUGUUGCUGUCGGGUCGUUGGGAGUUUUCUUCG [Modxample 118 - Jieux - Sensor for bsa-mir-208a] (Eterna round: R96, puzzle: Sensor for hsa-mir-208a)
measured target: MS2 coat protein
apparent KD of MS2 coat protein (nM): 15.4
--
residue string: GCUCGCACGAUGACCCACAUGAGGAUCACCCAUGUGCUUGGGCAGGAUAUCUAGAUUAAGGAUGUAGAGAAGGGUCGAGCGAGC [SameState NG3 #28] (Eterna round: R96, puzzle: Same State NG 3)
measured target: MS2 coat protein
apparent KD of MS2 coat protein (nM): 69.6
--
residue string: GGAUGAUUAAUAGGAUAUUAUUUGUAAUUUGGUUAAGAAGGAUUAAUGAUUUAAACGACCUGUUACAUGAGGAUCACCCAUGUU [JR_SSNG1_Sub089] (Eterna round: R96, puzzle: Same State NG 1)
measured target: MS2 coat protein
apparent KD of MS2 coat protein (nM): 76.5
--
residue string: UUGCUCGUGUGAGGAUAUGCCGCCGUUUCGGCUGCAGAAGGUACUACGUUACAUGAGGAUCACCCAUGUCUCUGUUGUUUCGUG [salish99_SSNG1_r04_940] (Eterna round: R96, puzzle: Same State NG 1)
measured target: MS2 coat protein
apparent KD of MS2 coat protein (nM): 13.9
--
residue string: GCUCGUAUCACAACCAACAUGAGGAUCACCCAUGUAUGUUGGUAGGAUAUCUAUAUUAAGGAUAUAGAGAAGGGCCGAACGAGC [SameState NG3 #12] (Eterna round: R96, puzzle: Same State NG 3)
measured target: MS2 coat protein
apparent KD of MS2 coat protein (nM): 59.7
--
residue string: GCCGCACAUGAGGAUCACCCAUGUAAUUACAUGGGAGGAUAUCAGUGCUCGAAAGAGCACUGAGAAGGCCUGAGGC [SS1 - Omei A v1] (Eterna round: R96, puzzle: Same State 1)
measured target: MS2 coat protein
apparent KD of MS2 coat protein (nM): 42.4
--
residue string: AAACACAUGAGGAUCACCCAUGUAGCACCAUUGAGGCGCACAUAGGAUAUCCGGUCCAAAAGACCGGAGAAGGGUGAAAGAAAA [Veandi] (Eterna round: R96, puzzle: Same State NG 3)
measured target: MS2 coat protein
apparent KD of MS2 coat protein (nM): 371

###

- System: K4 kissing-loop RNA reporter
- test protocol: apparent KD of K4 kissing-loop reporter; higher = weaker reporter binding
- protocol conditions: Eterna round: R107; input ligand: FMN 200 uM
Binary call on apparent KD of K4 kissing-loop reporter: Condition met from 400 nM upward, Condition not met beneath that.

residue string: AAAAUAAGCCAGUGAUGUUGGGAUCCAGAUACCAGCGACGAAAGUCGCCCUUGGCAGCUGUGGACGUACAAAAUAAGUACGUCCU
label: Condition met

residue string: UAAGAGGACCACUACAAGAGUCCUCGAAUACGAGGACCGGUACGGCCGCCACUCGAUAACUUGUAGUGAUGUUGCAAGUAAGAAU [BrourdMod 2 - Jieux - Same State Tryptophan A]
label: Condition not met

residue string: GGAUAGGAUAGAGGAUAUGGCUUACACAGAAAUAACUUGUUGUGUUUAUCCAUAGGGAGUGAUGUUCCAGAAGGCUGUCCUAUCG [MatMod 19 - Jieux - Exclusion - FMN B]
label: Condition met

residue string: GUACGCUCUCGAGUGAUGUUCGGUAAUAGAGAGGAUAUCGCUUUUGCGAGAAGGCUCUGAAUGAGGAAACUCGUUCUGAGUGUAC [FMN A 19]
label: Condition met

residue string: AGUAUGUAAUAUGGCAUAUUUAGAACUGAAGGAGCGCCGAAUAAGGCAGGUAGGUCGCGGAAUCAUGAGUGAUGUUCAUGACUAU [KL-SSArg-A26]
label: Condition not met

residue string: GAUGGGUAUCAAGGAUAUGCCACUAUUGACUCCUAGAUGGUCAACCAUAUAAUGCGAGUGAUGUUCGCAGAAGGUGAUUCUUAGC [theeternabot_exclusion_KL_FMN_B_24]
label: Condition not met

###

- Test system: K4 kissing-loop RNA reporter;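 note: bound reporter read as fluorescence of individual clusters on recovered sequencing chips by microscopy, with normalized cluster intensities fitted with a binding model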
- test protocol: apparent KD of K4 kissing-loop reporter; higher = weaker reporter binding
- protocol conditions: Eterna round: R107; input ligand: theophylline 20 uM
measurement kind: apparent KD of K4 kissing-loop reporter

residue string: AGCUGUGGCAGAAGGAGCGGCAGUUAUUCUGAUAGUACUCUGAGUGAUGUUCAGAACGACUGUCAGGUAGGUCGCUGUCACAGCU [#02 K4 Arginine B Exclusion]
measurement kind: apparent KD of K4 kissing-loop reporter
measurement: 0.206 µM

residue string: UUAUAUACGAGUGAUGUUCGUUAUUUAUCAGAGGAUAUGCUUAAAUGCAGAAGGCUGUAUUUCUAUUUGAUAUUAAAUUUUAUAA [JR_Nu3_ExcFMNA_Sub026]
measurement kind: apparent KD of K4 kissing-loop reporter
measurement: 0.0861 µM

residue string: UGGAGUUGACGAAAAGUCAACUCCUGAGAUACCAGUGACGAAAGUCACCCUUGGCAGCUCACUGGCAGUGAUGUUGCUAUAUAAA [KL-SSTheo-A3]
measurement kind: apparent KD of K4 kissing-loop reporter
measurement: 0.211 µM

residue string: CUAAGGGAAGCAGGAUAUCGGUAUUAGUGUGUUAAAUAAACACUCGGGUAGUGAUGUUGCCCGUGGCGAGAAGGGCUACCAUUGG [Laace]
measurement kind: apparent KD of K4 kissing-loop reporter
measurement: 0.0414 µM

residue string: CGCCGCAACUGAAGGAGCGCGCCAGUGAUGUUGGACGGCUUUGUCAAGGAAACUGCACCGGUGCAGGUAGGUCGCAGUUCGCGGU [Dilea]
measurement kind: apparent KD of K4 kissing-loop reporter
measurement: 0.253 µM

residue string: GCGUCUGUCGGAAGGAGCGCACUAUGGAGUGAUGUUCCAUGACCGCACAGCUUGCGGUCAGUGCAGGUAGGUCGCCGAUAGCGUU [Diestera]
measurement kind: apparent KD of K4 kissing-loop reporter
measurement: 0.191 µM
